Biological target: DYRK2 (Homo sapiens, UniProt Q92630)
Experiment: Protein kinase assay ([γ-33P]-ATP, RS peptide substrate), DYRK2
Format: biochemical
Conditions: 10 µM compound, compared to controls; read-out: Residual Activity at 10 µM DYRK2
quantity_kind: remaining activity at 10 µM (%)
Give the value, in units of %, as a plain number.

molecule="N#Cc1c(-c2ccc(Cl)cc2)[nH]c2c(I)cccc12 [Compound 6m]" readout_unit=% readout_number=116
molecule="N#Cc1cn(Cc2ccccc2)c2c(Cl)cccc12 [Compound 13a]" readout_unit=% readout_number=144
molecule="Cn1cc(C#N)c2cccc(Cl)c21 [Compound 13c]" readout_unit=% readout_number=117

Below: the item to evaluate.
Item Cc1cccc2c(C#N)c(-c3ccccc3)[nH]c12 [Compound 6e] has what recorded remaining activity at 10 µM?
75

* * *

Biological target: UniProtKB O35493
# if measured IC50 < 200 nM: satisfied  # else: not satisfied

compound="N#Cc1c(CC(O)CO)[nH]c2c(Cl)cccc12 (stereo not shown) [Compound 14]" class_name="not satisfied"
compound="N#Cc1c(-c2ccccc2)[nH]c2c(Cl)cccc12 [Compound 6f]" class_name=satisfied
compound="CC(C)c1[nH]c2c(I)cccc2c1C#N [Compound 6q]" class_name=satisfied
compound="N#Cc1c(C2CC2)[nH]c2c(I)cccc12 [Compound 6r]" class_name=satisfied
compound="Cn1cc(C#N)c2cccc(Br)c21 [Compound 13d]" class_name="not satisfied"
compound="N#Cc1c(C2CCCC2)[nH]c2c(I)cccc12 [Compound 6s]" class_name=satisfied
compound="N#Cc1c(-c2ccccc2)[nH]c2c(Br)cccc12 [Compound 6g]" class_name=satisfied
compound="N#Cc1c(-c2ccccc2)[nH]c2ccccc12 [Compound 6d, 2-Phenyl-1H-indole-3-carbonitrile]" class_name="not satisfied"

Bench note: check whether N#Cc1c[nH]c2c(Br)cccc12 [Compound 6b, 7-Bromo-1H-indole-3-carbonitrile] shows IC50 below 200 nM
not satisfied

Please let me know if COc1ccc(-c2[nH]c3c(I)cccc3c2C#N)cc1 [Compound 6n] shows IC50 below 200 nM.
not satisfied

* * *

Assay: Kinetic solubility, laser nephelometry
Format: physicochemical
Conditions: phosphate buffer pH 7.4, nephelometry
quantity_kind: Sexp., kin., pH 7.4

compound="Cn1c(-c2ccccc2)c(C#N)c2cccc(I)c21 [Compound 13f]" quantity_kind="Sexp., kin., pH 7.4" result="37.5 (36.6–38.4) µM"
compound=N#Cc1c[nH]c2c(Br)cccc12 quantity_kind="Sexp., kin., pH 7.4" result="142 ± 14 µM"
compound=N#Cc1c(C2CCCC2)[nH]c2c(I)cccc12 quantity_kind="Sexp., kin., pH 7.4" result="16.2 (15.2–17.3) µM"
compound=N#Cc1c(C2CC2)[nH]c2c(I)cccc12 quantity_kind="Sexp., kin., pH 7.4" result="38.1 (37.6–38.6) µM"
compound=N#Cc1c(-c2cccnc2)[nH]c2c(I)cccc12 quantity_kind="Sexp., kin., pH 7.4" result="10.0 (7.21–12.9) µM"
compound=N#Cc1c(-c2ccccc2)[nH]c2c(I)cccc12 quantity_kind="Sexp., kin., pH 7.4" result="4.57 (4.11–5.03) µM"

What value of Sexp., kin., pH 7.4 has been reported for the following compound? N#Cc1c(-c2ccccc2)[nH]c2c(Br)cccc12
14.8 ± 0.26 µM

Given the entry N#Cc1c[nH]c2c(Cl)cccc12 , report its measured Sexp., kin., pH 7.4.
116 ± 14 µM

So what does the record say about Sexp., kin., pH 7.4 for O=C(O)c1nc2ccccc2c2[nH]c3c(I)cccc3c12 [KuFal194 (5), reference compound] ?
5.28 (4.99–5.57) µM

So what's the measured Sexp., kin., pH 7.4 for this one? N#Cc1c[nH]c2c(I)cccc12
261 (254–267) µM

# Sexp., kin., pH 7.4 lookup, item N#Cc1c(-c2ccccc2)[nH]c2c(Cl)cccc12
14.7 ± 4.5 µM

* * *

List of IC50 values.
Biological target: CLK1 (Mus musculus, UniProt P22518)
Sequence (P22518 whole entry): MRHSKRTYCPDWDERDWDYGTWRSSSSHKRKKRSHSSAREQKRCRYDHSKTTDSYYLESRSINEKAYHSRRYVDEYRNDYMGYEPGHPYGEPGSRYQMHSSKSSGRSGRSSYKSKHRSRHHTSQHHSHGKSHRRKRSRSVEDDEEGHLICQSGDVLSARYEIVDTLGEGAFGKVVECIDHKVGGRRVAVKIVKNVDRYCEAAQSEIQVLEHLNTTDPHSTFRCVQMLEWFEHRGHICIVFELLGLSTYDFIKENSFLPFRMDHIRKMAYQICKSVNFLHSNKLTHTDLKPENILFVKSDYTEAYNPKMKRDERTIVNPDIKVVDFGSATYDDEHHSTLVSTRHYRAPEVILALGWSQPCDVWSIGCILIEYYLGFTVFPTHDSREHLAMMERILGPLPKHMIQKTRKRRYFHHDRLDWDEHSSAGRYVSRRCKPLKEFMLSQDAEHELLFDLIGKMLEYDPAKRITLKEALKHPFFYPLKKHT
// units = nM; emit number, no label

molecule=N#Cc1c(-c2ccccc2)[nH]c2c(Cl)cccc12 quantity_kind=IC50 readout_number=70

Okay, now this molecule:
Record Cn1c(-c2ccccc2)c(C#N)c2cccc(I)c21 [Compound 13f] : what is its IC50 with CLK1 (Mus musculus, UniProt P22518)?
600

* * *

Test: Cytotoxicity, cell viability by tetrazolium dye assay (XTT assay)
Type: cell-based
Conditions: human, HeLa cells, 10 µM, read-out: Viability of treated HeLa cells relative to control cells
quantity_kind: viability at 3 days, 10 µM (%)
A number alone suffices; assume %.

Below: 3 compounds and their reported viability at 3 days, 10 µM.
compound="N#Cc1cn(Cc2ccccc2)c2c(Br)cccc12 [Compound 13b]" quantity_kind="viability at 3 days, 10 µM" readout_number=66
compound=N#Cc1c(-c2ccccc2)[nH]c2c(Cl)cccc12 quantity_kind="viability at 3 days, 10 µM" readout_number=85
compound=N#Cc1c(-c2ccccc2)[nH]c2c(I)cccc12 quantity_kind="viability at 3 days, 10 µM" readout_number=87

Quick check: viability at 3 days, 10 µM of O=C(O)c1nc2ccccc2c2[nH]c3c(I)cccc3c12 [KuFal194 (5), reference compound] ?
45

Fill in: viability at 3 days, 10 µM of N#Cc1c(C2CCCC2)[nH]c2c(I)cccc12 is ___
82

* * *

This document collects pIC50 values reported for CLK2 (Mus musculus).
Scale: pIC50 equals -log10([C]), with [C] in mol/L.

Below: 4 compounds and their reported pIC50.
compound=N#Cc1c(-c2ccccc2)[nH]c2c(I)cccc12 readout_number=5.70
compound=COc1cccc(-c2[nH]c3c(I)cccc3c2C#N)c1 readout_number=5.48
compound=CC(C)c1[nH]c2c(I)cccc2c1C#N readout_number=6.15
compound=N#Cc1c(C2CC2)[nH]c2c(I)cccc12 readout_number=6.00

// lookup pIC50 for N#Cc1c(CC(O)CO)[nH]c2c(Cl)cccc12 (stereo not drawn)
5.00

For N#Cc1c(C2CCCC2)[nH]c2c(I)cccc12 , what is its reported pIC50?
6.00

Quick check: pIC50 of N#Cc1c[nH]c2c(I)cccc12 ?
5.10

* * *

# maps each entry to its LLE
Target: DYRK1A (Homo sapiens)
Experiment: Ligand-lipophilicity efficiency (pIC50 minus calculated logP)
Conditions: pIC50 (DYRK1A) minus calculated logP
Returns: the value as a bare number; no unit string appended.

Field: example entries. Status: answers known.
compound=N#Cc1c(C2CC2)[nH]c2c(I)cccc12 assayed_system="DYRK1A (Homo sapiens)" readout_number=3.37
compound="N#Cc1c(CC(O)CO)[nH]c2c(Cl)cccc12 (stereo not drawn)" assayed_system="DYRK1A (Homo sapiens)" readout_number=4.59
compound=N#Cc1c(-c2cccnc2)[nH]c2c(I)cccc12 assayed_system="DYRK1A (Homo sapiens)" readout_number=3.89

Field request: LLE | item: N#Cc1c(C2CCCC2)[nH]c2c(I)cccc12
2.78

Give its LLE value. Item: N#Cc1c(-c2ccccc2)[nH]c2c(Br)cccc12
3.34

I'd like to know its LLE. The compound in question is Cn1c(-c2ccccc2)c(C#N)c2cccc(I)c21 [Compound 13f]
1.54

* * *

Recorded below: pIC50, system CLK4 (Mus musculus, UniProt O35493).
Answer as the number alone; pIC50 is minus log10 of concentration in mol/L.

Below are worked cases with known answers.
compound="N#Cc1c[nH]c2c(I)cccc12 [Compound 6c, 7-Iodo-1H-indole-3-carbonitrile]" readout_number=5.74
compound="Cn1c(-c2ccccc2)c(C#N)c2cccc(I)c21 [Compound 13f]" readout_number=6.00
compound="Cn1c(-c2ccccc2)c(C#N)c2cccc(Br)c21 [Compound 13e]" readout_number=6.00

Query pIC50 on CLK4 (Mus musculus, UniProt O35493) for N#Cc1c(-c2ccccc2)[nH]c2c(I)cccc12 [Compound 6h, 7-Iodo-2-phenyl-1H-indole-3-carbonitrile]
Sequence (O35493 whole entry): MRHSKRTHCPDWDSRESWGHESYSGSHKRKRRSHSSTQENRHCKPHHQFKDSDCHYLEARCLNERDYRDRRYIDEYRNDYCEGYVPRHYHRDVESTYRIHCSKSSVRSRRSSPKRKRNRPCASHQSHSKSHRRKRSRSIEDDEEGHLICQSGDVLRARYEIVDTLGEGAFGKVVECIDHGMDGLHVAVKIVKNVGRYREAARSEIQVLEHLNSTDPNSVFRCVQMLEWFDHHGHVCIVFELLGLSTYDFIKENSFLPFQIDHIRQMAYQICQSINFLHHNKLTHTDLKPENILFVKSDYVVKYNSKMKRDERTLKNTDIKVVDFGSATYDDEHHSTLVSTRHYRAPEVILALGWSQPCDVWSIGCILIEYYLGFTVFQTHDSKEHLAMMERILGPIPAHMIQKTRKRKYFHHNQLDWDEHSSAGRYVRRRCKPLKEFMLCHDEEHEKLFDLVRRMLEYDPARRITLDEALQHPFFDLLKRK
7.30

* * *

Target: DYRK2 (Homo sapiens, UniProt Q92630)
Sequence (Q92630 1-601): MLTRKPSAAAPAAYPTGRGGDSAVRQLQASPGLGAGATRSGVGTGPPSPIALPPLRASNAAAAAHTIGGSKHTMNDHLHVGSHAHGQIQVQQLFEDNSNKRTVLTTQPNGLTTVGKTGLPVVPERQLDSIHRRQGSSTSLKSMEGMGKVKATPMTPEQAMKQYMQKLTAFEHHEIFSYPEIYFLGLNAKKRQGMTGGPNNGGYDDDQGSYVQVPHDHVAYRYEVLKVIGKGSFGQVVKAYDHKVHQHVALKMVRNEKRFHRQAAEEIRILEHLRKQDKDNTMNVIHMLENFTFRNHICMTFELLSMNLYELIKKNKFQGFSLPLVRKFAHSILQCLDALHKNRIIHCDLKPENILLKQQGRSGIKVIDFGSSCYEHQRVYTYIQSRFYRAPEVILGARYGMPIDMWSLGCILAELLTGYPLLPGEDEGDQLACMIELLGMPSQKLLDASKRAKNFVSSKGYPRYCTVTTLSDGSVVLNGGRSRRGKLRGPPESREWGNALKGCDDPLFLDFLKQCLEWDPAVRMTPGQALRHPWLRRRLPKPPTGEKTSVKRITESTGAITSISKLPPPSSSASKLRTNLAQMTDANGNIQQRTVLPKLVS
quantity_kind: IC50

compound=N#Cc1c[nH]c2c(I)cccc12 result="8 µM"

I'd like to know its IC50. The compound in question is COc1cccc(-c2[nH]c3c(I)cccc3c2C#N)c1
> 10 µM

Please give the measured IC50 for this compound: N#Cc1c(-c2ccccc2)[nH]c2c(Cl)cccc12
> 10 µM

Looking for the measured IC50 of N#Cc1c(-c2ccccc2)[nH]c2c(Br)cccc12 , can you help?
> 10 µM

Need IC50, item CC(C)c1[nH]c2c(I)cccc2c1C#N
> 10 µM

Please give the measured IC50 for this compound: N#Cc1c(C2CC2)[nH]c2c(I)cccc12
8 µM

Sample N#Cc1c(-c2ccccc2)[nH]c2c(I)cccc12 — what was its IC50?
> 10 µM

Would you kindly share the measured IC50 for N#Cc1c[nH]c2c(Br)cccc12 ?
> 10 µM

Consider the compound shown here: C=CCc1[nH]c2c(Cl)cccc2c1C#N What is its recorded IC50?
> 10 µM

# query: IC50 of entry N#Cc1c[nH]c2c(Cl)cccc12
> 10 µM

Request the reported IC50 associated with Cn1cc(C#N)c2cccc(Br)c21 [Compound 13d]
> 10 µM
